Every entry's value here was drawn from BindingDB's records for doi:10.1021/jm00083a013.

# target_system: Aminopeptidase N (Rattus norvegicus)
# Sequence (P15684 whole entry): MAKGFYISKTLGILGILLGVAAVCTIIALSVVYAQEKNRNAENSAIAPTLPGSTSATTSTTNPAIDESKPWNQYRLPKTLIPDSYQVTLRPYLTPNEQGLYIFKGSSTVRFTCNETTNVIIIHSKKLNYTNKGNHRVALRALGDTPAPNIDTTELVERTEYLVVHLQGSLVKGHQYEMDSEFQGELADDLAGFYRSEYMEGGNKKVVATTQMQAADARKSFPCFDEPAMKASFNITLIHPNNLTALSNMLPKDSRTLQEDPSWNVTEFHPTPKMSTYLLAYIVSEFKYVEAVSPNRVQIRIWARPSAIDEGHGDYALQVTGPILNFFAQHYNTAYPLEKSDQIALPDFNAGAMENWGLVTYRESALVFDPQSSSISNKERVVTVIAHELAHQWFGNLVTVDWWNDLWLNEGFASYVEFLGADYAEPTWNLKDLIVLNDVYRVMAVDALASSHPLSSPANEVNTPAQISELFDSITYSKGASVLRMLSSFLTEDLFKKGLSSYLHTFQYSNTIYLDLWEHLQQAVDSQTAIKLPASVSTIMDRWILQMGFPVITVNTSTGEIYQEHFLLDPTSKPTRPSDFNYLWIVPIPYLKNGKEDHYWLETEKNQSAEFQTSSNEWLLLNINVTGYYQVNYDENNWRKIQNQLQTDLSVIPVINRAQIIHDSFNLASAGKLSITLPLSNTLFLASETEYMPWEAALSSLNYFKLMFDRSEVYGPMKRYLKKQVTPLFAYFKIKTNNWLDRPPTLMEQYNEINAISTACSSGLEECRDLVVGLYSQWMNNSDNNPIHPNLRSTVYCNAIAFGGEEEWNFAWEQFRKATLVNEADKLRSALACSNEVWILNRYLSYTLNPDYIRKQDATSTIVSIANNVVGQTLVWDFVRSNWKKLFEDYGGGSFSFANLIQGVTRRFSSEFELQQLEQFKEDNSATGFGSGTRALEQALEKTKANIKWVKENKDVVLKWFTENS
readout: IC50

Query string: Using the record for `COC(=O)[C@H](CC(C)C)NC(=O)[C@H](O)[C@@H](N)CCCCN` , report its IC50.
Result string: > 1000 µM
